assay: soluble on expression in E. coli; label from the status in PepcDB or PDB records
EXPERIMENTAL_ENDPOINT: soluble on expression in E. coli

Worked cases, answers included:
MSNGIVIIGSGFAARQLVKNIRKQDATIPLTLIAADSMDEYNKPDLSHVISQGQRADDLTRQTAGEFAEQFNLHLFPQTWVTDIDAEARVVKSQNNQWQYDKLVLATGASAFVPPVPGRELMLTLNSQQEYRACETQLRDARRVLIVGGGLIGSELAMDFCRAGKAVTLIDNAASILASLMPPEVSSRLQHRLTEMGVHLLLKSQLQGLEKTDSGIQATLDRQRNIEVDAVIAATGLRPETALARRAGLTINRGVCVDSYLQTSNTDIYALGDCAEINGQVLPFLQPIQLSAMVLAKNLLGNNTPLKLPAMLVKIKTPELPLHLAGETQRQDLRWQINTERQGMVARGVDDADQLRAFVVSEDRMKEAFGLLKTLPM : not soluble
MNVSVVIPALNEEATVADVVALSRRGSDEVIVIDSDSTDATAARAKAAGASVVNWRDVVSLPPIPGKGEALWRGVAAARGDVVVFLDADLTEISPTIVEDLARPFIDDSVMLAKAAYTRGDASGGGGRVTELTARPLLEAFFPELGFVRQPLGGEYAIRRSAALDLPFVGGYGVEVGLLIDVFRCFGAASIVEVEAGHRGHRHRPLRELAPMARVVASTILQRAGVASGLDGVGQRPAISSLESGVGKVLEHHHHHH : soluble
MAHHHHHHMLMCAGRKRFYFSLPSSRALKNIVKLPLLEREDKQKIIHIWKEKYQNDKYVVADHIHISKYEQIKNNCKNNSHFIIPQRNQNGYINFYSQFIDHKLLFITALEEYNKLRANSTPYVTLHFFDELKSREIILTKLNIVNNVITKNQAIKFYNYILSFYSDANYFPYVCKFNNDSRNFHYDAFIDKFKHLC : not soluble
MSLNDIIEQLQELSETVPVPLELPTFEQLVEVEEQILIGLPNDLKEFLMYGSDVIYGTLEPVTAADPSSHTYLPEVACYAWSIGLPREQIAICQIGDSFYCIDEESQVMFWKKGRFSDKVWESFWHWAEDVWLNREGHHHHHH : soluble
DDFETSLTELEPLEKDAYIVRLVFAGSTTTEPIVSSLSTAYDIKINILEANIKNTKNGTVGFLVLHIPYISSVDFGKFEKELIERQVKMEVLRHG : soluble

### Prompt Respond only with soluble on expression in E. coli recorded for `TKLSPELLVKLGSEGVLAGVKDSSGDDVSFRRLVMLNKKAGSPLTLLTGHEAVVDGAFIAGADGCVPGLGNVDPAGYVRMWKAAEAGDWATVQKEQDRLAALFEIVFQPIGKVGPAAGVGSFKTALE`
### Response not soluble

### Prompt Respond only with soluble on expression in E. coli recorded for `MGSDKIHHHHHHMKVSTISIDLAKNVFQLLGMDKHAKQVFSKRLNRTQLSEFMSQQPVCDVVFEACYSSHYWGRKFLAMGHNVKLIPAQHVTPFVRGSKNDKNDAMAIYEANFRPNIRFVPIKTEAQQEILMLHRVRERLVKQRTACTNQIRGVLVDFGICFPQGHSAFERAMWDIINDESQRPIIKLMANDFWDEYQTVSTRLDRINRLIKQLVEQDPNGKILLSIPGVGPIIASAFAAAIGAGQAFNSAKELAVWLGLTPQQFASGNKSINGSITKRGDGYLRKQLIHGARTVVSHASKKNDDLNQWITQLRNRKSICTTVVATAHRLARLMWILLHKQVPYAPQYGAYQGISHEAN`
### Response not soluble

###

experiment: soluble on expression in E. coli; label from the status in PepcDB or PDB records
EXPERIMENTAL_ENDPOINT: soluble on expression in E. coli

VDNARIDLRSKYYVKPKADHPWLTRRTQSHQQVKPPKLPKKKPDPDKKD : soluble
MNPRQAFFACLHRSPPALLEAALWIAAEHDPQVVPGLLLEEFKQLQQQVGSSLPTLPANELGQPLLRRLNDLGFQQDEHLPLRPQAALMDKVLERRRGQPLALALIALELAQRLQVPLAGVNFPGHFLLRVPGADHLLDPCGGRRLYPNDCRELLQRQYGAHIKLSAEHLASAEPLQMFQRLSRNLRQLHLSYDDHLGALINAERVLEIGNGSAADYLARASLYQRLECPNAERFDLEHALLLSDDPIQRLRLTERLGHLPPNTIVHLEHHHHHH : soluble

###

assay: soluble on expression in E. coli; label from the status in PepcDB or PDB records
EXPERIMENTAL_ENDPOINT: soluble on expression in E. coli

MSRGGKGGDGDTRGGGGENGNQNNKGGNDEGGNEIEVPSMEELDGLADKIADEFVSQGMKIYQTLDPETRPYPDEYREGLRSQVEELPEKFKEFYTPGPGEFTAKLDLIDELTRKLDTQAGDFNTGEISGHVHDAMDNMGEWEGALSISFRKGYLDPLYEGIIPNHGRVLALLHDNFQAMRDIYAEGRKSLKKIGEDGLSAMEQADDVDGAAVVTALTVLAAAFGLGFAGLAAVPGIATAAGVAGAAVAGGLAVASDQAPEPEEIPLAGSSAEDVLVNIYDALSKLEDDILTKEAELIDTILRGCDETLELVGDTTENSMLVPKMPDLVGTALDDYHQISEGLNQFD : not soluble
MSKLLLKTPCTTWTFDSLMACVFGIKVSDVKVYFDILKNGPSKINDIAERINRDRSTVQRAVQNLMNAGLVKRKQVNIKDGGYYYVYEAIPFEETKKIIKKTMEEWCNNMKKWVEELEFEDVVKEYLENIEE : not soluble

###

experiment: soluble on expression in E. coli; label from the status in PepcDB or PDB records
EXPERIMENTAL_ENDPOINT: soluble on expression in E. coli

Worked cases, answers included:
MQVTYKGRPIRITPDFSPETMKARRAWTDVIQTLREHKCQPRLLYPAKLSITIDGETKVFHDKTKFTQYLSTNPALQRIITEKKQYKD : soluble
MGSDKIHHHHHHMLQNGYVPCSFRISMAGMDVEFNTKNDVIKAYLSRPDDGMRHPGIVVIHEIFGLDDHIRSVADRISREGYVALAPDLFSSHELSAKITREGILESMKFIMSIPPEKQRDDSYRNSLLNSMPEEKRRIMSSTYSALFVNRPTQLLTEYLEYAVDYLKGIGVTSVGSVGFCFGGGMSANLGCTGKVDATVIFYGENPDPIDKVKGMKSVLGLYAGEDHRITSRVPELLAKLIEFSIPVTIKVYPGAYHAFFNDTRPQIYNEAAAKDAWNMMLYFFRTQLGP : not soluble
MLTAATEVLAAADGPGSAESAWAWRDAPIATLVQRIQQLQNERAQAFRRLDQAHRQYLLSGQHYDFPSYRSVVHEVTQAFAAASREVLAVEAELAGPRAQPVLARHVRSLQELEQTRLATVALLQVMGTPGVSEQDPEKLHQLKIKVIKTMEAIGEVLQELRFDAESAE : soluble
GKLDATLRAIVHTAAELVDARYGALGVRGYDHRLVEFVYEGIDEETRHLIGSLPEGRGVLGALIEEPKPIRLDDISRHPASVGFPLHHPPMRTFLGVPVRIRDEVFGNLYLTEKADGQPFSDDDEVLVQALAAAAGIAVDNARLFEESR : soluble
MGSDKIHHHHHHMNVLIVSSSEGITLSLLRCLGLLNIKSHVISVWKSSGSSRFSRFCKNYISSFITESSQGAENIADVINDYCKQQKIDIIIPSGLLGTFLVALIKEKLSYSSVFPINDADKIYNLNNKWQFYHLLRQHNIPTPKTILIETPEQIKLLNLNFPVMVKPLDRGNGYGVKKIDSIVDLHGYISNASQINNLPILVQEYVFGYDILLNVLAENGKLIAWTINRRVPYFFEFFQDENILEIAHKIIDSCNYTGVANFDIRFDERSNSVKVIECNPRFWASFGASVSYGIDFVNLGILLAQGQKLPDNLKKEVTCTEPEKIPYPSPSQFLKGLLLAKYPFAAMKKISSDLAWQSILDPLPNIYEKIWNRLGIVNTHDGVMLNKLLSNSIRVKI : not soluble

### Prompt Respond only with soluble on expression in E. coli recorded for `MQQPINYIMNIMHLERDLKRLTSNWSSATGLSLNELRILVYVEQHPGIQIGDVANALNVAKASLAQNIGTLITQGWLKSQPIKQDRRLRVLTLTKAGQDRMKDVDAQLTKSLDTTPATQLADQLSALQL`
### Response not soluble

### Prompt Respond only with soluble on expression in E. coli recorded for `MGSDKIHHHHHHMDLRSDALQILKDTSRTFYIPISILPSGLQEAVASAYLCMRAIDEIEDHPTLDNPTKAKLLRGISLTLQAGVDGFPVDAFAAGFSGYENTLAEVTMRIREWSLLAPETIAPRIWDATAAMSDRMAYWAENNWKIYTESDLDRYTFGVAGAVGLLLSDLWTWYDGTQTNRTLAIGFGRGLQAVNILRNHVEDLGRGVSFFPDGWDANNMQEYALRNLALADAYTQALPDGPALNFCQIPLTLAHGTIDAIANGKEKLSRNDVMALLEHLITFNLKAG`
### Response not soluble

The measurements presented in this section are drawn from the DeepSol protein solubility set.
